Quick reference: koff of the listed items.
biological target: T1, human ApoC3 (huApoC3), native protein purified from human serum (human, UniProt P02656 21-99); test: SPR Biacore, huApoC3 on chip, scFv-Fc as analyte
T1 construct: Athens Research and Technology; randomly biotinylated in some assays; also called Apolipoprotein C3
T1 sequence (P02656 21-99): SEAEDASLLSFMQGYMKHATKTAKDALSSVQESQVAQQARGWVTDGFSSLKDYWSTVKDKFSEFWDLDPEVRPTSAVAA
Write the value in s⁻¹ as a bare number.

>>> data_value("8H4 scFv-Fc (Fc fusion, scFv-Fc format) VH: ELQLVESGGGLVQPGRSLRLSCAASGFTFSSYSMRWVRQTPGKGLEWVTSINSDGGSTKYSDSVKGRFTISRDNAKNTLYLQMNNVKPEDTAIYYCAIQGYTDWGQGTQVTVSS VL: DVVLTQTPGSLSVVPGESASISCKVSQSLVHSDGKTYLYWLLQKPGQSPQRLIYQVSNRDSGVPDRFTGSGSGTDFTLKISGVKAEDAGVYYCAQGTYNPYTFGSGTRLEIK")
"7.44e-05"

Now for the binder whose koff we want.
Quick check: koff of 11H1 scFv-Fc (Fc fusion, scFv-Fc format) VH: ELQLVESGGGLVQPGGSLRLSCAASGFTFSSYSMRWVRQAPGKGLEWLSSIKSDGSITSYADSVKGRFTMSRDNAKNTLYLQMNSLKSEDTAMYYCTNQGYINWGQGTQVTVSS VL: ATMLTQSPGSLTIVPGESASISCRASQSLIHSAGKTYFYWLLQKPGQRPQLLIYQVSNRESGVPDRFTGSGSGTDFTLKISGVKAEDAGVYYCAQGTYNPKTFGQGTKLEIK ?
0.000207

Provenance of the data: patent US20190241648A1
